System: B16-BL6 melanoma cells
MEASUREMENT_PROTOCOL: Experimental metastasis test of B16-BL6 melanoma cells in lung
Format: in vivo, C57BL/6 female mice
EXPERIMENTAL_SETUP: Table 4; 500 μg/mouse; day 14; PBS control 96 ± 14
Quick reference: Number of colonies (Mean ± SD) of the listed items.

For orientation, consider the following solved cases.
MOLECULE: N=C(N)NCCC[C@H](NC(=O)CC(=O)N[C@@H](CC(=O)O)C(=O)O)C(=O)O [Compound 1]
EXPERIMENTAL_RESULT: 13 ± 6
//
MOLECULE: CNC(=O)C(CC(=O)O)NC(=O)CC(=O)NC(CCCNC(=N)N)C(=O)O (centres unmarked) [Compound 8]
EXPERIMENTAL_RESULT: 55 ± 12
//
MOLECULE: CNC(=O)C(CCCNC(=N)N)NC(=O)CC(=O)NC(CC(=O)O)C(=O)NC (centres unmarked) [Compound 14]
EXPERIMENTAL_RESULT: 94 ± 26

Which Number of colonies (Mean ± SD) value belongs to N=C(N)NCCC[C@@H](NC(=O)CC(=O)N[C@@H](CC(=O)O)C(=O)O)C(=O)O [Compound 2] ?
23 ± 9

I have this molecule here, CNC(=O)C(CCCNC(=N)N)NC(=O)CC(=O)NC(CC(=O)O)C(=O)O (centres unmarked) [Compound 12] , and I need its recorded Number of colonies (Mean ± SD).
58 ± 20
